- target.under.test: T1, Pex5p wildtype, recombinant His6-tagged (HisPex5p) (S. cerevisiae, UniProt P35056 1-612)
- T1 construct: Pex5p, PTS1 receptor of Saccharomyces cerevisiae, UniProtKB P35056, full length; No cleavage of the His tag is described; the native MS mass of the monomer is printed as 71.459 kDa; also called Pex5p^WT; source: E. coli BL21 RIL (DE3), purified (Ni-NTA, MonoQ anion exchange, SEC)
- T1 sequence (looked up): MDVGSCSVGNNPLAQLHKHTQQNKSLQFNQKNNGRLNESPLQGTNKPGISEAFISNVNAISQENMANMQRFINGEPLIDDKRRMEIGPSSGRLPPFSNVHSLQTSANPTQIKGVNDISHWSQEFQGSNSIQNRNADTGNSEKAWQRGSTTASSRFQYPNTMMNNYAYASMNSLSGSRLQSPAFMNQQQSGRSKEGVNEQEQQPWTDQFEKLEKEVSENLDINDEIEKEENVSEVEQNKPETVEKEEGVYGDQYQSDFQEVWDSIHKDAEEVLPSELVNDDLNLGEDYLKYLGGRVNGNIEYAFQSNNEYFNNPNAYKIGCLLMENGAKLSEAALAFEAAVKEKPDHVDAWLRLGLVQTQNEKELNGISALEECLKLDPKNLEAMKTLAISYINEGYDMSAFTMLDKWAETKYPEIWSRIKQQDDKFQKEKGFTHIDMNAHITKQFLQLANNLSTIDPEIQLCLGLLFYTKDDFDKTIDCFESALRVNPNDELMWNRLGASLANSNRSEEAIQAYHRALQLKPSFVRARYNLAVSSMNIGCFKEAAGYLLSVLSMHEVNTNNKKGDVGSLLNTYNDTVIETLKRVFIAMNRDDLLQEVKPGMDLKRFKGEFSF
- assay.protocol: fluorescence polarisation; fluorescence anisotropy; 10 nM FITC-labelled Idp3p peptide, serial dilutions of Pex5p variant 160 nM to 38 µM; 50 mM HEPES pH 7.5, 150 mM NaCl; one-site binding-saturation fit
- condition.info: both partners purified
Ends that are not written are not given here. * marks the point of attachment. FITC = O=C1OC2(c3ccc(O)cc3Oc3cc(O)ccc32)c2ccc(NC(=S)*)cc21
parameter: pKd
Numbers only, as −log10 of the molar value.

The recorded pKd for entry {FITC}-YNEDKKGMCKL [Idp3p nonapeptide, FITC-YNEDKKGMCKL] equals 5.26
